Would you mind telling me the reported melting point of each entry?

// lookup melting point for CCC(CC)C(NS(=O)(=O)c1ccc(Cl)s1)C(C)O (stereo not drawn) 95 to 98 °C

Another compound: CCc1c(NC(=O)c2cc(S(C)(=O)=O)ccc2OCC(C)C)c(C(N)=O)nn1C1CCN(C(=O)OC(C)(C)C)CC1 134 to 141 °C

Another compound: CCOC(=O)Nc1ccc(NCc2coc3ccc(F)cc23)cc1N 150 to 151 °C

----------
Would you mind telling me the reported melting point of each entry?

// lookup melting point for Nc1c([N+](=O)[O-])sc2ccc([N+](=O)[O-])cc12 288 to 291 °C

Another compound: O=C(O)CSCCCCOc1ccccc1 48 to 50 °C

Another compound: Cc1cccc2nnc(-c3ccccc3)c(Cl)c12 128 °C

Another compound: CC(C)(NC1=NS(=O)(=O)c2sc(Cl)cc2N1)c1ccccc1 360 °C

Another compound: COc1c(C)c(C)c(OC)c(CC[C@@]2(C)CO2)c1C 47 to 48 °C

Another compound: CC1(C)C(=O)Oc2c(S(C)(=O)=O)cc3cc(S(C)(=O)=O)c(Cn4cncn4)cc3c21 263 to 264 °C

Another compound: CC(=O)N(C(C)=O)c1c(C#N)cnn1-c1c(F)c(F)c(C)c(F)c1F 132 to 133 °C

Another compound: CCN1C(=O)CC(C(=O)O)C1c1c(Cl)cccc1Cl (configuration not stated) 195 to 197 °C

Another compound: NC1=Nc2ccc(I)cc2C(c2ccccc2F)=NC1 219 to 221 °C

Another compound: C[C@@H](N1CCN(c2ccc(-n3cnn(Cc4ccc(C(F)(F)F)cc4C(F)(F)F)c3=O)cc2)CC1)[C@](O)(Cn1cncn1)c1ccc(F)cc1F 146 to 148 °C

Another compound: Oc1nsnc1-c1ccc(Cl)cc1 240 to 242 °C

Another compound: Cc1nc2c(n1C)CC(C(=O)N(C)C)CC2=O (configuration not stated) 190 to 194 °C

Another compound: Fc1cc(Br)cc(CBr)c1 41 to 43 °C

Another compound: CC(C)(C)OC(=O)N1CCN(c2nccs2)CC1 114 to 116 °C

Another compound: Cc1c(C(=O)O)cnn1-c1c(Cl)cccc1Cl 180 to 182 °C

Another compound: O=C(CCc1ccc(Cl)cc1Cl)NC1CC(=O)c2ccccc2NC1=O (configuration not stated) 234 to 236 °C

Another compound: CN1C(=O)CC[C@]2(C)c3ccc(Sc4nc5ccc(Cl)cc5s4)cc3CC[C@@H]12 156 to 162 °C

Another compound: CCOC(=O)NC(=O)C1c2ccccc2Oc2c1cccc2C(F)(F)F (configuration not stated) 196 to 198 °C

Another compound: N#Cc1ccc2c(c1)OCC21C(=O)N(Cc2ccccn2)c2ccccc21 (configuration not stated) 151 to 153 °C

Another compound: O=C(O)c1cc(F)c(-n2cccc2)cc1F 196 to 198 °C

Another compound: CN(C)CCSc1cc(NC(=O)OC(C)(C)C)c(N)cc1C#Cc1ccccc1 115 to 117 °C

Another compound: Nc1cc(OCc2ccccc2)c2ncccc2c1 183 to 185 °C

Another compound: O=C(NCCCl)Nc1ccc2[nH]ccc2c1 159 to 161 °C

Another compound: CC(C)(C)c1ccc(C(=O)Nc2cn3nc(-c4cnn(CCO)c4)ccc3n2)cc1 226 to 229 °C

Another compound: CCCCc1nc2ccccn2c1Cc1ccc(-c2ccccc2C(=O)O)cc1 196 °C

Another compound: Cc1cc(-n2cc(I)nc2C)ccc1[N+](=O)[O-] 146 to 148 °C

Another compound: O=C(CNS(=O)(=O)c1ccc2ccccc2c1)NCC(NC(=O)C1CCN(c2ccncc2)CC1)C(=O)N1CCCCC1 (configuration not stated) 200 to 202 °C

Another compound: Cc1ccc(S(=O)(=O)OCCC2(OC3CCCCO3)CC2)cc1 (configuration not stated) 56 to 57 °C

Another compound: CCc1cccc(CC)c1NC(=O)c1c(C)oc(C)cc1=O 83.5 to 84.5 °C

Another compound: NC(=O)c1ccccc1N1CCN(CC[C@H]2OCCc3ccccc32)CC1 157 to 158 °C

Another compound: CC(=O)NC(CSC(c1ccccc1)(c1ccccc1)c1ccccc1)C(=O)NCCSC(=O)C(C)C (configuration not stated) 147 to 148 °C

Another compound: CCCCCCCCCCCCNC(=O)c1cc(-c2ccc(OC)cc2)c(OCCO)c(-c2cccc(Cl)c2)c1 114 to 117 °C
